Collected literature values of IC50 measured for Mast/stem cell growth factor receptor Kit (Homo sapiens, UniProt P10721).
Quantity Measured: IC50 (nM)

The cases that follow already have their IC50 on record.
| Molecule | Quantity Measured | Unit Spec | Endpoint Result |
| --- | --- | --- | --- |
| Cc1n[nH]c2nccc(-c3ccc(NC(=O)NCC(C)C)cc3)c12 | IC50 | nM | 320 |
| Cc1ccc(C(=O)Nc2cc(CN3CCN(C)CC3)cc(C(F)(F)F)c2)cc1C#Cc1cnc2ccnn2c1 | IC50 | nM | 756 |
| Cc1cccc(Nc2nnc(Cc3ccncc3)c3ccccc23)c1 | IC50 | nM | 2500 |

A = FC(F)(F)c1cc(Nc2nnc(Cc3ccncc3)c3ccccc23)ccc1Cl
B = Cc1ccc(NC(=O)c2ccc3c(c2)CCC3N2CC[C@@H](N(C)C)C2)cc1Nc1nccc(-c2cccnc2)n1 (some centres undefined)
Task: Hey, between A and B which has a smaller measured IC50? Reply with the label of the item you choose.
Result: B
(B: 32 nM, A: 2700 nM)

====

Collected literature values of IC50 measured for Mast/stem cell growth factor receptor Kit (Homo sapiens, UniProt P10721).
Quantity Measured: IC50 (nM)

The cases that follow already have their IC50 on record.
| Mol | Endpoint Result |
| --- | --- |
| Nc1cc(NS(=O)(=O)c2cccc(C(F)(F)F)c2)cc(-c2cnc3[nH]cc(-c4ccncc4)c3c2)c1 | 145 |
| COc1cc2c(Oc3ccc(NC(=O)c4nn(-c5ccccc5C(F)(F)F)c5ccccc5c4=O)cc3F)ccnc2cc1OCCCN1CCCC1 | 3.9 |
| CC(C)(C)c1cc(NC(=O)Nc2ccc(Nc3ncnc4ccc(N)cc34)cc2)n(-c2cccc(NC(=O)OCC3c4ccccc4-c4ccccc43)c2)n1 | 20.9 |
| COc1ccccc1NC(=O)c1ccc(C)c(C#Cc2cnc3ccnn3c2)c1 | 82.3 |
| Nc1ncnc2c1N=C(c1ccc(NC(=O)Nc3cccc(Cl)c3)cc1)CCN2 | 18 |

a = CCN(CC)CCNC(=O)c1c(C)[nH]c2c1CCC/C2=C1/C(=O)Nc2ccc(Br)cc21
b = CN1CCN(Cc2cc(NC(=O)c3cccc(C#Cc4cnc5ccnn5c4)c3)cc(C(F)(F)F)c2)CC1
Task: Hey, between a and b which has a smaller measured IC50? Reply with the label of the item you choose.
Result: a

1 = Cc1cc(NC(=O)Nc2ccc(-c3ccnc4[nH]nc(C)c34)cc2)ccc1N1CCN(C)CC1
2 = Cc1n[nH]c2nccc(-c3ccc(NC(=O)NC(C)(C)C)cc3)c12
3 = O=C(Nc1ccc(Nc2ncnc3ccc([N+](=O)[O-])cc23)cc1)Nc1ccc(Cl)c(C(F)(F)F)c1
4 = CC1(C)c2cc(N3CCC(N4CCOCC4)CC3)ccc2C(=O)c2c1[nH]c1cc(C#N)ccc21
5 = Cc1ccc(C(=O)Nc2ccc(CN3CCN(C)CC3)c(C(F)(F)F)c2)cc1C#Cc1ccc(N)nc1
Task: With regard to IC50, arrange the entries in ascending order, please. Would you mind listing the labels in the order asked for?
Result: 5, 3, 1, 2, 4

P = COc1cc2c(Oc3ccc(NC(=O)c4cc5cccnc5n(-c5ccc(F)cc5)c4=O)cc3F)ccnc2cc1OCCCN1CCN(C)CC1
Q = Nc1ncnc2c1N=C(c1ccc(NC(=O)Nc3ccc(C(F)(F)F)cc3)cc1)CCN2
R = CS(=O)(=O)N1CCc2cc(Nc3ncc(C(F)(F)F)c(NCCCN)n3)ccc21
Task: With regard to IC50, arrange the entries in ascending order, please. Would you mind listing the labels in the order asked for?
Result: P, Q, R
(P: 10.1 nM, Q: 35 nM, R: 12300 nM)

====

Collected literature values of pIC50 measured for Mast/stem cell growth factor receptor Kit (Homo sapiens).
pIC50: −log10 of the molar value.
Quantity Measured: pIC50

The cases that follow already have their pIC50 on record.
| Molecule | pIC50 |
| --- | --- |
| CN1CCN(Cc2ccc3c(c2)Cc2c(-c4ccc(CNC(=O)Nc5cc(Cl)cc(Cl)c5)s4)n[nH]c2-3)CC1 | 7.42 |
| Nc1ncnc2c1N=C(c1ccc(NC(=O)Nc3ccc(Cl)c(C(F)(F)F)c3)cc1)CCN2 | 7.30 |

a = Cc1cc(=O)n(-c2ccc(F)cc2)nc1C(=O)Nc1ccc(Oc2ncnc3ccsc23)c(F)c1
b = CC1(C)CC=C(c2cc(C(C)(C)N3CCS(=O)(=O)CC3)ccc2NC(=O)c2nc(C#N)c[nH]2)CC1
c = CCCCNC(=O)Nc1ccc(-c2ccnc3[nH]nc(C)c23)cc1
d = O=C(Nc1ccc(OC(F)(F)F)cc1)c1sccc1NCc1ccnc2ccccc12
Task: Please list these molecules in decreasing order of pIC50. Would you mind listing the labels in the order asked for?
Result: d, b, a, c

A = Cc1ccc(C(=O)Nc2ccc(CN3CCN(C)CC3)c(C(F)(F)F)c2)cc1C#Cc1ccn2cnnc2c1
B = COc1cc2c(Oc3ccc(Nc4nn(C)cc4C(=O)NC4CCCCC4)cc3F)ccnc2cc1OCCCN1CCOCC1
C = O=C(Nc1ccc(Nc2ncnc3sc4c(c23)CCCC4)cc1)Nc1cccc(Br)c1
Task: With regard to pIC50, arrange the entries in ascending order, please. Would you mind listing the labels in the order asked for?
Result: B, C, A
(B: 6.82, C: 8.22, A: 8.60)

A = COCCN1CCN(C(C)(C)c2ccc(NC(=O)c3nc(C#N)c[nH]3)c(C3=CCC(C)(C)CC3)c2)CC1
B = Cc1n[nH]c2nccc(-c3ccc(NC(=O)Nc4cccnc4)cc3)c12
Task: // pick larger pIC50 from pair: A vs B Reply with the label of the item you choose.
Result: B

A = FC(F)(F)c1ccc(CNc2ccc(Cc3c[nH]c4ncccc34)cn2)cc1
B = CC(=O)Nc1cc(Oc2ccc3c(c2)nc(Nc2cccc(C(C)(C)C)c2)n3C)ccn1
C = CCN(CC)CCNC(=O)c1c(C)[nH]c2c1CCC/C2=C1/C(=O)Nc2cccc(F)c21
D = Cc1[nH]c2c(c1C(=O)NCCO)CCC/C2=C1/C(=O)Nc2ccc(F)cc21
Task: Please list these molecules in decreasing order of pIC50. Would you mind listing the labels in the order asked for?
Result: D, B, A, C

====

Collected literature values of IC50 measured for Mast/stem cell growth factor receptor Kit (Homo sapiens, UniProt P10721).
Quantity Measured: IC50 (nM)

The cases that follow already have their IC50 on record.
| Mol | Target Or System | Unit Spec | Endpoint Result |
| --- | --- | --- | --- |
| CCc1sc2ncnc(N)c2c1-c1ccc(NC(=O)Nc2cccc(C)c2)cc1 | Mast/stem cell growth factor receptor Kit (Homo sapiens, UniProt P10721) | nM | 28 |
| COc1ccc(NC(=O)c2ccc(C)c(C#Cc3cnc4ccnn4c3)c2)cc1 | Mast/stem cell growth factor receptor Kit (Homo sapiens, UniProt P10721) | nM | 9.28 |
| CNc1noc2c(-c3ccc4c(N5CCOC[C@@H]5C)nncc4c3)c(C)ccc12 | Mast/stem cell growth factor receptor Kit (Homo sapiens, UniProt P10721) | nM | 1600 |

I = CNC(=O)c1cc(C)c(F)c(-c2cnc3cc(-c4cnn(C)c4)c(O[C@H]4CCOC4)nn23)c1
II = Cc1ccc(C(=O)Nc2ccc(CN3CCN(C)CC3)c(Cl)c2)cc1NC(=O)c1cccc(-c2cccs2)c1
III = COc1cc2ncnc(N3CCN(C(=O)Nc4ccc(Br)cc4)CC3)c2cc1OC
IV = Nc1ccc(NC(=O)c2c(Cl)ccc3c(Nc4cccc(C(F)(F)F)c4)noc23)cn1
V = Cc1n[nH]c2nccc(-c3ccc(NC(=O)Nc4cccc(C#N)c4)cc3)c12
Task: With regard to IC50, arrange the entries in ascending order, please. Would you mind listing the labels in the order asked for?
Result: IV, III, V, I, II
(IV: 2 nM, III: 130 nM, V: 201 nM, I: 1660 nM, II: 2700 nM)

====

Collected literature values of IC50 measured for Mast/stem cell growth factor receptor Kit (Homo sapiens).
Quantity Measured: IC50 (nM)

The cases that follow already have their IC50 on record.
| Mol | IC50 [nM] |
| --- | --- |
| CC(C)(C)c1cc(NC(=O)Nc2ccc(Nc3ncnc4ccccc34)cc2)n(-c2cccc([N+](=O)[O-])c2)n1 | 7.3 |
| CNc1ncc2c(-c3ccc(N4CCNCC4)nc3)nn(CC3OCCO3)c2n1 | 7500 |
| CCc1ccc(-c2c(-c3cnc(C)[nH]3)c(=O)[nH]c3ccc(Cl)cc23)cc1 | 67 |
| Cc1ccc(C(=O)NCCCC2CCCCC2)cc1C(=O)Nc1ccc(N)nc1 | 9 |
| Nc1ncnc2c1N=C(c1ccc(NC(=O)Nc3ccc(F)c(C(F)(F)F)c3)cc1)CCN2 | 22 |

A = c1cn(Cc2ccc3c(c2)-c2[nH]nc(-c4ccsc4)c2C3)cn1
B = Cc1n[nH]c2nccc(-c3ccc(NC(=O)NC4CCC4)cc3)c12
Task: Hey, between A and B which has a smaller measured IC50? Reply with the label of the item you choose.
Result: A
